Measurement Target: HLA-B*57:01
Assay Overview: IEDB peptide-MHC binding, purified MHC/direct/fluorescence; filed as Kd, often an IC50 or EC50 that approximates it; bounds were set here for any values at or beyond the usual limits of such assays
Study Conditions: source organism: Escherichia coli O157:H7
Measure Name: Kd

Item: `REWGWRIPF` | System: HLA-B*57:01 | Kd: ≥ 20 µM

----------
Measurement Target: HLA-A*01:01
Assay Overview: IEDB peptide-MHC binding, purified MHC/competitive/radioactivity; filed as Kd, often an IC50 or EC50 that approximates it; bounds were set here for any values at or beyond the usual limits of such assays
Study Conditions: source organism: Mammarenavirus juninense
Measure Name: pKd
# reply with the number alone; pKd is -log10 of concentration in mol/L

For reference, reported pKd for `LCLSGDGWPY` stands at 5.99

----------
Measurement Target: HLA-A*02:19
Assay Overview: IEDB peptide-MHC binding, purified MHC/direct/fluorescence; filed as Kd, often an IC50 or EC50 that approximates it; bounds were set here for any values at or beyond the usual limits of such assays
Study Conditions: source organism: Choclo virus
pKd: −log10 of the molar value.
Measure Name: pKd

Recorded pKd (sequence `GRFQEALKK` ): ≤ 4.70

----------
Measurement Target: HLA-A*26:01
Assay Overview: IEDB peptide-MHC binding, purified MHC/competitive/fluorescence; filed as Kd, often an IC50 or EC50 that approximates it; bounds were set here for any values at or beyond the usual limits of such assays
Study Conditions: source organism: Mycobacterium tuberculosis H37Ra
pKd: −log10 of the molar value.
Measure Name: pKd

What the record says about `AVYLLDGLR` : pKd is ≤ 4.70

----------
Measurement Target: HLA-A*02:50
Assay Overview: IEDB peptide-MHC binding, purified MHC/competitive/fluorescence; filed as Kd, often an IC50 or EC50 that approximates it; bounds were set here for any values at or beyond the usual limits of such assays
Study Conditions: source organism: Vibrio cholerae 2740-80
Measure Name: Kd (nM)
Your answer is read as nM, so omit the unit and give the number.

// Kd lookup, sequence = `MMFDAMGAL` , result: 0.2

----------
Measurement Target: HLA-A*26:01
Assay Overview: IEDB peptide-MHC binding, purified MHC/competitive/fluorescence; filed as Kd, often an IC50 or EC50 that approximates it; bounds were set here for any values at or beyond the usual limits of such assays
Study Conditions: source organism: Yersinia pestis Antiqua
Measure Name: pKd
Scale explanation: pKd corresponds to minus log10 of a concentration expressed in moles per litre.

Record summary for `FASSRMSTY` : reported pKd = 6.65

----------
Measurement Target: HLA-A*02:01
Assay Overview: IEDB peptide-MHC binding, purified MHC/direct/fluorescence; filed as Kd, often an IC50 or EC50 that approximates it; bounds were set here for any values at or beyond the usual limits of such assays
Study Conditions: source organism: Pseudomonas viridiflava
Measure Name: Kd

// Kd lookup, sequence = `DYDQRDYGF` , result: ≥ 20 µM

----------
Measurement Target: HLA-B*53:01
Assay Overview: IEDB peptide-MHC binding, purified MHC/competitive/radioactivity; filed as Kd, often an IC50 or EC50 that approximates it; bounds were set here for any values at or beyond the usual limits of such assays
Study Conditions: source organism: SARS coronavirus Tor2
Measure Name: pKd
# reply with the number alone; pKd is -log10 of concentration in mol/L

The value of pKd measured for the sequence `APYMVGDVI` turned out to be 5.45

----------
Measurement Target: HLA-A*69:01
Assay Overview: IEDB peptide-MHC binding, purified MHC/competitive/fluorescence; filed as Kd, often an IC50 or EC50 that approximates it; bounds were set here for any values at or beyond the usual limits of such assays
Study Conditions: source organism: human gammaherpesvirus 4
Measure Name: Kd

The value of Kd recorded for `FTASVSTVV` when tested on HLA-A*69:01 reads ≤ 100 pM

----------
Each record here notes measured Kd.
Measurement Target: HLA-B*15:01
Assay Overview: IEDB peptide-MHC binding, purified MHC/competitive/radioactivity; filed as Kd, often an IC50 or EC50 that approximates it; bounds were set here for any values at or beyond the usual limits of such assays
Study Conditions: source organism: Dengue virus 4 Philippines/H241/1956
A number alone suffices; assume nM.

Consider the worked cases shown below.
{"Residue Sequence": "SQHNYRQGY", "Measurement Target": "HLA-B*15:01", "Endpoint Value": 3.47}
{"Residue Sequence": "KLRIKGMSY", "Measurement Target": "HLA-B*15:01", "Endpoint Value": 38.5}
{"Residue Sequence": "GTLALSLTF", "Measurement Target": "HLA-B*15:01", "Endpoint Value": 36.2}

So, `KQITNELNY` ? Its Kd was 7.56

----------
Measurement Target: HLA-A*69:01
Assay Overview: IEDB peptide-MHC binding, purified MHC/direct/fluorescence; filed as Kd, often an IC50 or EC50 that approximates it; bounds were set here for any values at or beyond the usual limits of such assays
Study Conditions: source organism: Yersinia pestis
Measure Name: Kd

Kindly note the recorded Kd for `RPQLWRYRW` , which is ≥ 20 µM

----------
Measurement Target: HLA-B*58:01
Assay Overview: IEDB peptide-MHC binding, purified MHC/direct/fluorescence; filed as Kd, often an IC50 or EC50 that approximates it; bounds were set here for any values at or beyond the usual limits of such assays
Study Conditions: source organism: Orthomarburgvirus marburgense
pKd: −log10 of the molar value.
Measure Name: pKd

Looking up `LEHGLYPQL` , I found its pKd recorded as ≤ 4.70

----------
Measurement Target: HLA-A*11:01
Assay Overview: IEDB peptide-MHC binding, purified MHC/direct/fluorescence; filed as Kd, often an IC50 or EC50 that approximates it; bounds were set here for any values at or beyond the usual limits of such assays
Study Conditions: source organism: Mycobacterium avium 104
Measure Name: Kd

Looking up `IAHVRDVVM` , I see its Kd listed as ≥ 20 µM

----------
Measurement Target: HLA-A*01:01
Assay Overview: IEDB peptide-MHC binding, purified MHC/competitive/fluorescence; filed as Kd, often an IC50 or EC50 that approximates it; bounds were set here for any values at or beyond the usual limits of such assays
Study Conditions: source organism: Mycobacterium tuberculosis H37Ra
pKd: −log10 of the molar value.
Measure Name: pKd

Reported pKd for `AVYLLDGLR` was ≤ 4.70

----------
Measurement Target: HLA-B*57:01
Assay Overview: IEDB peptide-MHC binding, purified MHC/competitive/fluorescence; filed as Kd, often an IC50 or EC50 that approximates it; bounds were set here for any values at or beyond the usual limits of such assays
Study Conditions: source organism: Zaire ebolavirus
pKd: −log10 of the molar value.
# maps each entry to its pKd

In plain terms, `EAEKQLQQY` has a documented pKd of ≤ 4.70

Recorded pKd (sequence `KLINTLFHA` ): ≤ 4.70

# sequence `FLILPQAKK` ; its pKd = ≤ 4.70

----------
# Kd listing for each entry below
Measurement Target: HLA-A*26:01
Assay Overview: IEDB peptide-MHC binding, purified MHC/competitive/fluorescence; filed as Kd, often an IC50 or EC50 that approximates it; bounds were set here for any values at or beyond the usual limits of such assays
Study Conditions: source organism: Orthohantavirus andesense

{"Residue Sequence": "IQNALEKAL", "Measurement Target": "HLA-A*26:01", "Kd": "≥ 20 µM"}

Next sequence, Kd to be filled in.
For this sequence ( `VFTSRIQVI` ), measured Kd is ≥ 20 µM

----------
# pKd annotations
Measurement Target: HLA-A*02:01
Assay Overview: IEDB peptide-MHC binding, purified MHC/competitive/radioactivity; filed as Kd, often an IC50 or EC50 that approximates it; bounds were set here for any values at or beyond the usual limits of such assays
Study Conditions: source organism: Dengue virus 1 Singapore/S275/1990
Scale for pKd: -log10 of concentration given in mol/L; no unit attached.

Would you please look over these solved cases?
{"Residue Sequence": "LLLTIGLSLV", "pKd": 8.41}
{"Residue Sequence": "SLSMTCIAV", "pKd": 7.87}

Short answer on HLA-A*02:01 for `FMNEDHWFS` , pKd: 8.01

----------
Measurement Target: HLA-A*02:03
Assay Overview: IEDB peptide-MHC binding, purified MHC/competitive/fluorescence; filed as Kd, often an IC50 or EC50 that approximates it; bounds were set here for any values at or beyond the usual limits of such assays
Study Conditions: source organism: Entamoeba dispar SAW760
Measure Name: Kd

The measured Kd that `KDGTLFYCY` showed for HLA-A*02:03 is ≥ 20 µM

----------
Measurement Target: HLA-A*02:11
Assay Overview: IEDB peptide-MHC binding, purified MHC/direct/fluorescence; filed as Kd, often an IC50 or EC50 that approximates it; bounds were set here for any values at or beyond the usual limits of such assays
Study Conditions: source organism: Choclo virus
pKd: −log10 of the molar value.
Measure Name: pKd

Lab book: pKd of `GRFQEALKK` noted as ≤ 4.70
